Data origin, for the record: ChEMBL document CHEMBL1136680

- SYSTEM: Estrogen receptor (Homo sapiens) (UniProt Q92731+P03372)
- TEST NAME: Displacement of [3H]estradiol from estrogen receptor
- Format: protein assay
- CONDITION CONTEXT: tested as the Zn salt or complex
RECORDED METRIC: relative binding affinity (RBA)
Reply briefly: the number, and no unit.

Given the compound `C[C@]12CC[C@@H]3c4ccc(O)cc4CC[C@H]3[C@@H]1CC[C@]2(O)CCCCC#CC#Cc1cccc2c1-c1nc-2nc2[nH]c(nc3nc(nc4[nH]c(n1)c1ccc(S(=O)(=O)[O-])cc41)-c1ccc(S(=O)(=O)[O-])cc1-3)c1ccc(S(=O)(=O)[O-])cc21.[Na+].[Na+].[Na+].[Zn]` , what is its reported relative binding affinity (RBA)?
0.56

Given the compound `CCCCc1ccc2cc3c(cc2c1)-c1nc-3nc2[nH]c(nc3nc(nc4[nH]c(n1)c1cc5ccc(CCCC)cc5cc41)-c1ccc(C#C[C@@]4(O)CC[C@H]5[C@@H]6CCc7cc(O)ccc7[C@H]6CC[C@@]54C)cc1-3)c1cc3ccc(CCCC)cc3cc21` , what is its reported relative binding affinity (RBA)?
10.4

Given the compound `C[C@]12CC[C@@H]3c4ccc(O)cc4CC[C@H]3[C@@H]1CC[C@]2(O)c1cccc(C#CC#Cc2ccc3c(c2)-c2nc-3nc3[nH]c(nc4nc(nc5[nH]c(n2)c2ccc(S(=O)(=O)[O-])cc52)-c2ccc(S(=O)(=O)[O-])cc2-4)c2ccc(S(=O)(=O)[O-])cc32)c1.[Na+].[Na+].[Na+].[Zn]` , what is its reported relative binding affinity (RBA)?
0.3

Given the compound `CCCCc1ccc2c(c1)-c1nc-2nc2[nH]c(nc3nc(nc4[nH]c(n1)c1ccc(CCCC)cc41)-c1ccc(C#C[C@@]4(O)CC[C@H]5[C@@H]6CCc7cc(O)ccc7[C@H]6CC[C@@]54C)cc1-3)c1ccc(CCCC)cc21` , what is its reported relative binding affinity (RBA)?
1.35
